# assay_name: qHTS RealTime-Glo MT Cell Viability Assay in HepG2 cells - 8 hour (AID 1224873); further: nearly all actives have a fitted effect of over 55% in size
# study_conditions: RealTime-Glo luminescence; series mostly up to 76.8 µM
Results filed as inconclusive are left out. Activity calls are given as the source filed them. The call rests on the fitted dose curve; in most records, active means well fitted cell-killing curve with a large enough effect in the repeat runs; inconclusive means weak or mixed curves; inactive means flat fitted curve, though single readings scatter.
Write down one outcome, taken from active, inactive

CCCCCCCCCCC=O | inactive
CCCN(CCC)c1c([N+](=O)[O-])cc(C(F)(F)F)c(N)c1[N+](=O)[O-] | active
O=C(Nc1cccc(Cl)c1)OCC#CCCl | active
O=C(O)c1cc(O)c2c(c1)C(=O)c1cccc(O)c1C2=O | inactive
Cc1ccc(-n2nc(C(C)(C)C)cc2NC(=O)Nc2ccc(OCCN3CCOCC3)c3ccccc23)cc1 | inactive

Consider now this further compound.
Lab log entry: CS(=O)(=O)CCNCc1ccc(-c2ccc3ncnc(Nc4ccc(OCc5cccc(F)c5)c(Cl)c4)c3c2)o1 — outcome as called in the assay?
active

* * *

# assay_name: qHTS assay to identify aromatase inhibitors - cell viability counter screen (AID 743084);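 further: cells stimulated with testosterone during compound exposure; nearly all actives have a fitted effect of over 55% in size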
# study_conditions: MCF-7 aro ERE viability, CellTiter-Fluor, 24 h; series mostly up to 70.3 µM
Inconclusive results are not listed. Activity calls are given as the source filed them. The call rests on the fitted dose curve; in most records, active means well fitted cell-killing curve with a large enough effect in the repeat runs; inconclusive means weak or mixed curves, or effect the other way; inactive means no such curve, though single readings can be large or run the other way.
Write down one outcome, taken from active, inactive

Solved cases (5 shown):
CCCCCCCCn1sc(Cl)c(Cl)c1=O | active
O=[N+]([O-])c1ccccc1Nc1ccccc1 | inactive
CCCCC(CC)CN=C(N)NC(N)=NCCCCCCN=C(N)NC(N)=NCC(CC)CCCC (configuration not stated) | active
CCCCCCCCCOC(=O)c1ccc(O)cc1 | active
CCc1oc2ccccc2c1C(=O)c1cc(Br)c(O)c(Br)c1 | inactive

Lab log entry: C=CC(=O)OCC(CO)(COCC(COC(=O)C=C)(COC(=O)C=C)COC(=O)C=C)COC(=O)C=C — outcome as called in the assay?
active

Lab log entry: CC(=O)OCC(C)OC(C)=O (configuration not stated) — outcome as called in the assay?
inactive

Lab log entry: CN1CCN(CCC(=O)N2c3ccccc3Sc3ccc(C(F)(F)F)cc32)CC1 — outcome as called in the assay?
inactive

Lab log entry: Cc1cc(O)c(C(C)(C)C)cc1C(C)(C)C — outcome as called in the assay?
active

Lab log entry: On1ccccc1=S — outcome as called in the assay?
active

Lab log entry: O=C1C=CC(=O)N1 — outcome as called in the assay?
active

Lab log entry: NNc1nc(-c2ccc([N+](=O)[O-])cc2)cs1 — outcome as called in the assay?
active

* * *

# target_or_system: Estrogen receptor (Homo sapiens)
# assay_name: qHTS assay to identify small molecule antagonists of the estrogen receptor alpha (ER-alpha) signaling pathway using the BG1 cell line in the presence of 0.1 nM 17-beta-estradiol (AID 1259244); further: nearly all actives have a fitted effect of over 50% in size
# study_conditions: VM7Luc4E2 (BG1) ERE-luciferase, antagonist mode, 0.1 nM E2, 22 h; series mostly up to 92.4 µM
Results filed as inconclusive are left out. Calls of active or inactive are those of the source. The call rests on the fitted dose curve; in most records, active means well fitted inhibition curve with a large enough effect in the repeat runs; inconclusive means weak or mixed curves; inactive means no such curve, though single readings can be large or run the other way.
Write down one outcome, taken from active, inactive

Solved cases (8 shown):
NC(=O)NS(=O)(=O)c1ccc(N)cc1 | inactive
c1cc(C(c2ccc(OCC3CO3)cc2)c2ccc(OCC3CO3)cc2)ccc1OCC1CO1 (stereo unspecified) | inactive
CN(C)C(=O)C1(N2CCCCC2)CCN(CC[C@@]2(c3ccc(Cl)c(Cl)c3)CN(C(=O)c3ccccc3)CCO2)CC1 | active
CCC(C)Nc1ccc(NC(C)CC)cc1 (stereo unspecified) | active
COCCCC/C(=N\OCCN)c1ccc(C(F)(F)F)cc1 | inactive
CN(C)CCCOC1(Cc2ccccc2)CCCCCC1 | inactive
Cc1cccc2c1cc1ccc3cccc4ccc2c1c34 | inactive
Cc1cc(O)c(C(C)(C)C)cc1Sc1cc(C(C)(C)C)c(O)cc1C | active

Lab log entry: CC(=O)SC[C@@H](Cc1ccccc1)C(=O)NCC(=O)OCc1ccccc1 — outcome as called in the assay?
inactive

Lab log entry: CC[C@@]1(O)C(=O)OCc2c1cc1n(c2=O)Cc2c-1nc1ccccc1c2/C=N/OC(C)(C)C — outcome as called in the assay?
active

Where these numbers come from: PubChem BioAssay (Tox21)
